System: DLD-1
Test: NCI tumour cell line growth inhibition, 48 h
Calls of active or inactive are those of the source. Rule as the data show it: active = GI50 up to about 1.1 µM and inactive = higher.

molecule	GI50
CS(=O)(=O)OCC1=C(COS(C)(=O)=O)C(=O)c2c(O)ccc(O)c2C1=O	> 100 µM (inactive)
CCCCC(C)C1CCC2(C)C=CC(=O)C(C)=C2C1O (centres undefined)	> 100 µM (inactive)
Nc1ccc2[nH]c3c(-c4ccccc4)nccc3c2c1	64.7 µM (inactive)
COc1cccc2c1C(=O)c1c(O)c3c(c(O)c1C2=O)C[C@@](O)(/C(C)=N/NC(=O)c1ccccc1)C[C@@H]3OC1CC(N)C(O)C(C)O1 (some centres undefined)	1.69 µM (inactive)

====

System: 786-0
Test: NCI tumour cell line growth inhibition, 48 h
Calls of active or inactive are those of the source. Cut-off read from the data, not from the text of the source: active = GI50 up to about 1.1 µM and inactive = higher.
GI50 listing for selected molecules.

molecule	measurement.target	GI50
Cc1ccc(NC(=O)CCC(=O)C2Cc3ccccc3C2=O)cc1C (centres undefined)	786-0	> 100 µM (inactive)
CNC(=O)OCc1c2ccncc2c(C)c2c1[nH]c1ccccc12	786-0	0.262 µM (active)
Cc1cc(S(=O)(=O)n2ccnc2Oc2ccccc2)c(SSc2cc(Cl)c(C)cc2S(=O)(=O)n2ccnc2Oc2ccccc2)cc1Cl	786-0	93.3 µM (inactive)
C=C=C(CC1CCCCC1=O)S(=O)(=O)c1ccccc1 (centres undefined)	786-0	4.2 µM (inactive)
Cc1cc(NS(=O)(=O)c2ccc(/N=N/c3c(Nc4ccccc4)nn(-c4ccc(S(=O)(=O)Nc5ccncn5)cc4)c3C)cc2)no1	786-0	> 100 µM (inactive)
O=C1CCC(=O)N1n1c(Cc2ccccc2)n[nH]c1=O	786-0	> 100 µM (inactive)
CC1CN=C(N(C(=O)Nc2ccccc2)c2ccc(Cl)c(Cl)c2)S1 (centres undefined)	786-0	31.1 µM (inactive)
O=[PH]1c2ccccc2Nc2ccccc21	786-0	> 100 µM (inactive)
CC(C)C(=O)/C=C/c1ccccc1	786-0	46.5 µM (inactive)
CN(C)c1ccc(/N=C2/NC(=N\c3ccccc3)/C(=N/c3ccccc3)S2)cc1	786-0	32 µM (inactive)
Nc1nc(Nc2ccc(Cl)cc2)sc1C(=O)c1c[nH]c2ccccc12	786-0	4.66 µM (inactive)
N[C@@H]1CCN(c2c(F)cc3c(=O)c(C(=O)O)cn4c3c2Oc2c-4ccc3c2ccc2ccccc23)C1	786-0	0.412 µM (active)
CCOC(CNc1nn2c(C)nnc2s1)OCC	786-0	> 100 µM (inactive)
CC(C)=Cc1cc(CCC/C(C)=C/Cc2c(O)cc(C)c(C(=O)O)c2O)co1	786-0	> 100 µM (inactive)

====

System: SK-OV-3
Experiment: NCI tumour cell line growth inhibition, 48 h
Active and inactive are the calls of the source. Rule as the data show it: active = GI50 up to about 1.1 µM and inactive = higher.
GI50 listing for selected compounds.

compound	GI50
Cc1c(O)nc(-n2[nH]c3c(c2=O)CCCC3)[nH]c1=O	> 100 µM (inactive)
CCN(CC)c1ccc(/C=C/C=C2C(=O)NC(=S)NC2=O)cc1	> 100 µM (inactive)
O=C(O)c1ccc(OCc2ccccc2)c(Cl)c1	> 100 µM (inactive)
O=[PH]1c2ccccc2Nc2ccccc21	> 100 µM (inactive)
CN(C)c1ccc(/N=C2/NC(=N\c3ccccc3)/C(=N/c3ccccc3)S2)cc1	48.9 µM (inactive)
Nc1c([N+](=O)[O-])nc(Cl)c2nncn12	> 100 µM (inactive)
COC(=O)C1CCC(=S)N1C(=O)c1ccccc1 (stereo not given)	> 100 µM (inactive)
CCC12CCCN(Cc3ccccc3)C1c1c(n(C)c3ccccc13)[C@H](C(=O)OC)C2 (stereo not given in full)	> 239 µM (inactive)
CCCCc1c(O)nc(Nc2nc3ccccc3[nH]2)[nH]c1=O	> 100 µM (inactive)
CCC(=O)NCCc1c[nH]c2ccc(OC)cc12	> 100 µM (inactive)
C[C@H](C/C=C/C(C)(C)O)[C@H]1CC[C@@]2(C)[C@@H]3CC[C@H]4C(C)(C)[C@@H](O)CC[C@@]45C[C@@]35CC[C@]12C	32.1 µM (inactive)
CSCSSC	74.6 µM (inactive)
COc1ccc(C23C(=O)c4ccccc4N2O[C@H]2C(=O)N(c4ccccc4)C(=O)[C@H]23)cc1 (stereo not given in full)	> 100 µM (inactive)
Nc1nc(SCCC/C=C/I)nc2c1ncn2C1OC(CO)C(O)C1O (stereo not given)	> 202 µM (inactive)
O=C1CCC(=O)N1n1c(Cc2ccccc2)n[nH]c1=O	> 100 µM (inactive)
CCOC(=O)CCCO	> 100 µM (inactive)
O=c1[nH]c2c3ccccc3ccc2c2cc3c(cc12)OCO3	> 100 µM (inactive)
CCOC(=O)/C(=C/c1ccc(C#N)cc1)N(CC)CC	> 100 µM (inactive)
O=C(NO)C(=O)Nc1cc(Cl)ccc1Cl	> 100 µM (inactive)
O=C(/N=N/C(=O)OCc1ccccc1)OCc1ccccc1	> 100 µM (inactive)
CCCCCCC(C)CC(CCCCCC)NCCOC(=O)c1ccc([N+](=O)[O-])cc1 (stereo not given)	14.9 µM (inactive)
CCO/C=N\C1=C(C#N)SC2=N/C(=C\c3ccco3)C(=O)N21	> 100 µM (inactive)
CC(C)c1ccccc1NC(=O)C(=O)Cc1nc2ccccc2s1	> 100 µM (inactive)
COc1ccc(/C(Cl)=C(\CNc2ccccn2)c2ccccc2)cc1OC	> 100 µM (inactive)
COC(=O)c1cc(C)n(CN(Cn2nc(C(=O)OC)cc2C)c2ccccc2)n1	> 100 µM (inactive)
COC(=O)/C=C/C1C(C(=O)OC)C2(C(=O)OC)CCC1(C(=O)OC)N2 (stereo not given)	> 100 µM (inactive)
CCOC(=O)C1=C(OC(OCC)C([Se]c2ccccc2)C(C)C)CCC1 (stereo not given)	81.7 µM (inactive)
CN1CCC(n2[nH]c(-c3ccccc3)c(Cc3ccccc3)c2=O)CC1	> 100 µM (inactive)
Cc1ccc(C2=Nc3c(N)nc(N)nc3NC(c3ccccc3)C2)cc1 (stereo not given)	13.9 µM (inactive)
CCOC(=O)c1[nH]c2nc(SC)nc(Nc3ccccc3Cl)c2c1N	21.4 µM (inactive)
c1ccc2c(c1)CC1=C(O2)c2ccccc2OC1	> 100 µM (inactive)
CC(C)C(=O)/C=C/c1ccccc1	> 100 µM (inactive)
O=C(c1nc2ccccc2nc1O)C(O)c1ccco1 (stereo not given)	> 100 µM (inactive)
Cc1cc(C)nc(SCCc2cccc[n+]2C)n1	> 100 µM (inactive)
O=C(CC(c1ccccc1)C(C(=O)c1ccncc1)C(CC(=O)c1ccncc1)c1ccccc1)c1ccncc1 (stereo not given)	29.2 µM (inactive)
COc1ccc(O)cc1	> 100 µM (inactive)
O=C1OC(=O)c2c1c(-c1ccccc1)nc1ccccc21	> 100 µM (inactive)
Cn1ccnc1Sc1ccc(/C=N\NC(=O)c2cccc(F)c2)cc1[N+](=O)[O-]	33.5 µM (inactive)
NNC(=O)Nc1nc2ccc(NN)cc2[nH]1	40.2 µM (inactive)
CC1OC(CC(=O)O)CC2=C1C(=O)c1c(O)cccc1C2=O (stereo not given)	4 µM (inactive)

====

Tested on: COLO 205
Assay: NCI tumour cell line growth inhibition, 48 h
Calls of active or inactive are those of the source. Cut-off read from the data, not from the text of the source: active = GI50 up to about 1.1 µM and inactive = higher.

compound	GI50
COC(=O)[C@@H]1Cc2c([nH]c3ccccc23)[C@H](c2ccccc2)N1	20 µM (inactive)
COc1cccc(-c2cc(O)c3c(C)cc(C)nc3n2)c1	0.21 µM (active)
O=C(CC(c1ccccc1)C(C(=O)c1ccncc1)C(CC(=O)c1ccncc1)c1ccccc1)c1ccncc1 (stereo unspecified)	> 100 µM (inactive)
COc1ccc2c3c([nH]c2c1CC=C(C)C)C(=O)C=C(C)C3=O	> 25 µM (inactive)
NNC(=O)Nc1nc2ccc(NN)cc2[nH]1	16.5 µM (inactive)
Cn1cco/c1=N/c1ccc(Cl)c(Cl)c1	> 10 µM (inactive)

====

System: IGROV-1
Assay: NCI tumour cell line growth inhibition, 48 h
The source made the active and inactive calls. Cut-off read from the data, not from the text of the source: active = GI50 up to about 1.1 µM and inactive = higher.

molecule	measurement.target	GI50
CCOC(=O)/C(=C/c1cccc(Cl)c1)N(CC)CC	IGROV-1	49.4 µM (inactive)
N#C/N=C(/N)NCN/C(N)=N\C#N	IGROV-1	> 100 µM (inactive)
O=C(O)C1CCCCC1c1c2ccc(=O)cc-2oc2cc(O)ccc12 (stereo not drawn)	IGROV-1	12.9 µM (inactive)
CN(C)CCCCN1CCc2c(n(C)c3ccccc23)C1=O	IGROV-1	57.9 µM (inactive)
CCOC(=O)C(NC(=O)Nc1ccc(Cl)cc1)(OC)C(F)(F)F (stereo not drawn)	IGROV-1	> 100 µM (inactive)
CCOP(=O)(C/C(=N/NC(C)(C)C)C(=O)Nc1nc2ccc(C)cc2s1)OCC	IGROV-1	> 100 µM (inactive)
NNC(=S)N/N=C(/C(=O)Nc1ccc([N+](=O)[O-])cc1)c1nc2ccc([N+](=O)[O-])cc2nc1O	IGROV-1	> 100 µM (inactive)
CC(C1=CC=C2[C@@H]3CCC4CC(N(C)C)CC[C@]4(C)C3CC[C@]12C)N(C)C=O (stereo partly drawn)	IGROV-1	> 100 µM (inactive)
